Data provenance is the supplement of paper PMC7877785.

- run.description: self-splicing fitness, log relative to wild type (ln ratio); higher = more splicing; Tetrahymena group I intron in knt gene, E. coli kanamycin selection, DiMSum; sequences stand for … in CUCUCU…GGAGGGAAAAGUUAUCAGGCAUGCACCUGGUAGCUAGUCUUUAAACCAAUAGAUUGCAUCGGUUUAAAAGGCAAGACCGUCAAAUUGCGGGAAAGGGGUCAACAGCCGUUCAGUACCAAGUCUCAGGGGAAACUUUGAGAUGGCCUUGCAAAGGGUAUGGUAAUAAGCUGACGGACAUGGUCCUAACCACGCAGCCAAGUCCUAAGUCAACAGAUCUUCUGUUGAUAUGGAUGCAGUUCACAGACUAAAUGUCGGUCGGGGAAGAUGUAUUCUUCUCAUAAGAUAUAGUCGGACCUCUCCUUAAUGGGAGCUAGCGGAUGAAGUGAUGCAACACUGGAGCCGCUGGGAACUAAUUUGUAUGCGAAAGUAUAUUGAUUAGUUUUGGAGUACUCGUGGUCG;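 note: selection with 25 µg/mL kanamycin versus none on LB agar overnight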
- condition.description: 30 °C
Kindly supply the reported self-splicing fitness (ln) values for the records listed here.

ACUAAGCAAUAUUACGUAAA ... -2.48
GGGGAGCAAUAUUACGUAAC ... -2.06
UGUUAGCAAUAUUACGAUCU ... -0.736
GCCCAGCAAUAUUACGGGAA ... 0.0209
GUAAAGCAAUAUUACGCAUG ... -1.15
CAUGAGCAAUAUUACGACGU ... -4.25

Answer for every listed entry: what is its self-splicing fitness (ln)? The entries follow.
1. UCGGAGCAAUAUUACGAGGG
2. CCACAGCAAUAUUACGUUAA
3. GCUUAGCAAUAUUACGACAC
4. CUAGAGCAAUAUUACGAGCG
5. GCCUAGCAAUAUUACGGUGU
6. ACCGAGCAAUAUUACGAUCG

-- reply
1. -3.58
2. -3.12
3. -0.819
4. 0.131
5. -0.374
6. -3.05

Report self-splicing fitness (ln) for each item below.
1. UGCCAGCAAUAUUACGGCUC
2. CUUAAGCAAUAUUACGUAGG
3. AGUCAGCAAUAUUACGUCAG

-- reply
1: -2.89; 2: -2.58; 3: -2.65
